# protein stability index values compiled below
B1: CCDC6 (parent)
chain: ASVTIQARAEQEEEFISNTLFKKI

- Variants of: B1
- Protocol: protein stability index of a GFP-peptide fusion (GPS, HEK-293T) (PSI 1-6); higher = more stable;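 also: lentivirally expressed fusions sorted by FACS into six bins by GFP to DsRed ratio, PSI derived from sequencing read proportions per bin multiplied by bin number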
- Measurement setup: c terminus: a fixed tail appended
Observation type: protein stability index

Mutation code: A7L
Reading: 2.12
//
Mutation code: I16D
Reading: 4.34
//
Mutation code: T4M
Reading: 3.2
//
Mutation code: I24T
Reading: 4.76
//
Mutation code: F15E
Reading: 4.69
//
Mutation code: E13V
Reading: 2.41
//
Mutation code: Q6Y
Reading: 1.94
//
Mutation code: S2Q
Reading: 3.71
//
Mutation code: A1Y
Reading: 2.27
//
Mutation code: S17G
Reading: 3.5
//
Mutation code: E10S
Reading: 3.14
//
Mutation code: T4L
Reading: 3.21
//
Mutation code: E10K
Reading: 3.15
//
Mutation code: T4A
Reading: 4.46
//
Mutation code: R8W
Reading: 3.27
//
Mutation code: I5Q
Reading: 5.03
//
Mutation code: K23L
Reading: 2.11
//
Mutation code: I24P
Reading: 4.25
//
Mutation code: A1N
Reading: 3.78
//
Mutation code: A7R
Reading: 3
//
Mutation code: N18R
Reading: 3.07
//
Mutation code: F21K
Reading: 4.7
